B1: C2CD2L (parent)
chain: LTLKVLRSSSCGDTELLGQATLPV

- Variants of: B1
- assay.notes: protein stability index of a GFP-peptide fusion (GPS, HEK-293T) (PSI 1-6); higher = more stable;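 further: lentivirally expressed fusions sorted by FACS into six bins by GFP to DsRed ratio, PSI derived from sequencing read proportions per bin multiplied by bin number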
- recorded.conditions: c terminus: a fixed tail appended
reported.metric: protein stability index

- mutation.spec: "V5M"
  reported.metric: "protein stability index"
  recorded.result: 1.75
- mutation.spec: "S9N"
  reported.metric: "protein stability index"
  recorded.result: 1.82
- mutation.spec: "T2H"
  reported.metric: "protein stability index"
  recorded.result: 1.3
- mutation.spec: "T2D"
  reported.metric: "protein stability index"
  recorded.result: 1.95
- mutation.spec: "L17Y"
  reported.metric: "protein stability index"
  recorded.result: 1.57
- mutation.spec: "T21P"
  reported.metric: "protein stability index"
  recorded.result: 2.22
- mutation.spec: "E15L"
  reported.metric: "protein stability index"
  recorded.result: 3.22
- mutation.spec: "L3S"
  reported.metric: "protein stability index"
  recorded.result: 2.74
- mutation.spec: "Q19D"
  reported.metric: "protein stability index"
  recorded.result: 1.61
- mutation.spec: "D13S"
  reported.metric: "protein stability index"
  recorded.result: 2.38
- mutation.spec: "L22Y"
  reported.metric: "protein stability index"
  recorded.result: 3.26
- mutation.spec: "G12M"
  reported.metric: "protein stability index"
  recorded.result: 3.71
- mutation.spec: "G12W"
  reported.metric: "protein stability index"
  recorded.result: 3.06
- mutation.spec: "E15P"
  reported.metric: "protein stability index"
  recorded.result: 2.61
- mutation.spec: "P23A"
  reported.metric: "protein stability index"
  recorded.result: 3.27
- mutation.spec: "L16G"
  reported.metric: "protein stability index"
  recorded.result: 1.97
- mutation.spec: "V5N"
  reported.metric: "protein stability index"
  recorded.result: 2.26
- mutation.spec: "K4E"
  reported.metric: "protein stability index"
  recorded.result: 2.12
- mutation.spec: "T2K"
  reported.metric: "protein stability index"
  recorded.result: 2.17
- mutation.spec: "S10W"
  reported.metric: "protein stability index"
  recorded.result: 4.07
- mutation.spec: "V5C"
  reported.metric: "protein stability index"
  recorded.result: 1.76
- mutation.spec: "Q19T"
  reported.metric: "protein stability index"
  recorded.result: 1.59
- mutation.spec: "G12F"
  reported.metric: "protein stability index"
  recorded.result: 3.92
- mutation.spec: "D13W"
  reported.metric: "protein stability index"
  recorded.result: 3.58
- mutation.spec: "L22D"
  reported.metric: "protein stability index"
  recorded.result: 2.67
- mutation.spec: "V5T"
  reported.metric: "protein stability index"
  recorded.result: 1.83
- mutation.spec: "S10A"
  reported.metric: "protein stability index"
  recorded.result: 3.7
- mutation.spec: "G12E"
  reported.metric: "protein stability index"
  recorded.result: 1.88
- mutation.spec: "A20L"
  reported.metric: "protein stability index"
  recorded.result: 2.33
- mutation.spec: "S9A"
  reported.metric: "protein stability index"
  recorded.result: 1.95
- mutation.spec: "T14H"
  reported.metric: "protein stability index"
  recorded.result: 2.47
- mutation.spec: "L17T"
  reported.metric: "protein stability index"
  recorded.result: 1.92
- mutation.spec: "L1M"
  reported.metric: "protein stability index"
  recorded.result: 2.63
- mutation.spec: "G12P"
  reported.metric: "protein stability index"
  recorded.result: 1.82
- mutation.spec: "P23C"
  reported.metric: "protein stability index"
  recorded.result: 3.55
- mutation.spec: "S10Q"
  reported.metric: "protein stability index"
  recorded.result: 1.78
- mutation.spec: "Q19Y"
  reported.metric: "protein stability index"
  recorded.result: 3.56
- mutation.spec: "T21V"
  reported.metric: "protein stability index"
  recorded.result: 2.34
- mutation.spec: "T21C"
  reported.metric: "protein stability index"
  recorded.result: 1.68
- mutation.spec: "S10M"
  reported.metric: "protein stability index"
  recorded.result: 5.18
- mutation.spec: "L16C"
  reported.metric: "protein stability index"
  recorded.result: 2.07
- mutation.spec: "E15D"
  reported.metric: "protein stability index"
  recorded.result: 1.41
- mutation.spec: "C11D"
  reported.metric: "protein stability index"
  recorded.result: 1.8
- mutation.spec: "L1F"
  reported.metric: "protein stability index"
  recorded.result: 1
- mutation.spec: "S8N"
  reported.metric: "protein stability index"
  recorded.result: 3.13
- mutation.spec: "K4M"
  reported.metric: "protein stability index"
  recorded.result: 1.06
- mutation.spec: "L16A"
  reported.metric: "protein stability index"
  recorded.result: 1.79
- mutation.spec: "L17E"
  reported.metric: "protein stability index"
  recorded.result: 2.7
- mutation.spec: "D13P"
  reported.metric: "protein stability index"
  recorded.result: 2.02
- mutation.spec: "Q19K"
  reported.metric: "protein stability index"
  recorded.result: 2.78
- mutation.spec: "E15Q"
  reported.metric: "protein stability index"
  recorded.result: 2.47
- mutation.spec: "E15F"
  reported.metric: "protein stability index"
  recorded.result: 3.12
- mutation.spec: "G12Y"
  reported.metric: "protein stability index"
  recorded.result: 1.42
- mutation.spec: "T14K"
  reported.metric: "protein stability index"
  recorded.result: 1.04
- mutation.spec: "T2G"
  reported.metric: "protein stability index"
  recorded.result: 1.93
- mutation.spec: "C11R"
  reported.metric: "protein stability index"
  recorded.result: 1.9
- mutation.spec: "L6Y"
  reported.metric: "protein stability index"
  recorded.result: 3.33
- mutation.spec: "T2W"
  reported.metric: "protein stability index"
  recorded.result: 2.99
- mutation.spec: "Q19E"
  reported.metric: "protein stability index"
  recorded.result: 2.86
- mutation.spec: "L6Q"
  reported.metric: "protein stability index"
  recorded.result: 2.59
- mutation.spec: "T14E"
  reported.metric: "protein stability index"
  recorded.result: 2.58
- mutation.spec: "L22S"
  reported.metric: "protein stability index"
  recorded.result: 1.61
- mutation.spec: "T14Q"
  reported.metric: "protein stability index"
  recorded.result: 1.95
- mutation.spec: "P23F"
  reported.metric: "protein stability index"
  recorded.result: 1.57
- mutation.spec: "G12N"
  reported.metric: "protein stability index"
  recorded.result: 1.56
- mutation.spec: "S9M"
  reported.metric: "protein stability index"
  recorded.result: 3.09
- mutation.spec: "S9D"
  reported.metric: "protein stability index"
  recorded.result: 1.72
- mutation.spec: "C11G"
  reported.metric: "protein stability index"
  recorded.result: 2.58
- mutation.spec: "V5H"
  reported.metric: "protein stability index"
  recorded.result: 2.27
- mutation.spec: "V5S"
  reported.metric: "protein stability index"
  recorded.result: 2.11
- mutation.spec: "L6S"
  reported.metric: "protein stability index"
  recorded.result: 1.89
- mutation.spec: "K4F"
  reported.metric: "protein stability index"
  recorded.result: 2.97
- mutation.spec: "L16M"
  reported.metric: "protein stability index"
  recorded.result: 1.86
- mutation.spec: "G12T"
  reported.metric: "protein stability index"
  recorded.result: 1.82
- mutation.spec: "G12R"
  reported.metric: "protein stability index"
  recorded.result: 2.71
- mutation.spec: "T21Y"
  reported.metric: "protein stability index"
  recorded.result: 3.37
- mutation.spec: "C11K"
  reported.metric: "protein stability index"
  recorded.result: 2.11
- mutation.spec: "A20R"
  reported.metric: "protein stability index"
  recorded.result: 1.44
- mutation.spec: "S9C"
  reported.metric: "protein stability index"
  recorded.result: 1.76
- mutation.spec: "L22N"
  reported.metric: "protein stability index"
  recorded.result: 2.32
- mutation.spec: "L3E"
  reported.metric: "protein stability index"
  recorded.result: 3.55
- mutation.spec: "R7M"
  reported.metric: "protein stability index"
  recorded.result: 2.32
- mutation.spec: "L17Q"
  reported.metric: "protein stability index"
  recorded.result: 2.1
- mutation.spec: "T2E"
  reported.metric: "protein stability index"
  recorded.result: 1.92
- mutation.spec: "G12L"
  reported.metric: "protein stability index"
  recorded.result: 2.82
- mutation.spec: "V24S"
  reported.metric: "protein stability index"
  recorded.result: 1.98
- mutation.spec: "L17C"
  reported.metric: "protein stability index"
  recorded.result: 2.18
- mutation.spec: "A20N"
  reported.metric: "protein stability index"
  recorded.result: 2.49
- mutation.spec: "D13T"
  reported.metric: "protein stability index"
  recorded.result: 3.72
- mutation.spec: "L22T"
  reported.metric: "protein stability index"
  recorded.result: 1.75
- mutation.spec: "L17I"
  reported.metric: "protein stability index"
  recorded.result: 2.4

Reference source: the supplement of paper PMC10567573
